Just for reference, ChEMBL document CHEMBL2375230 is where these values come from.

Test system: HUVEC
METHOD DESCRIPTION: Antiproliferative activity against HUVEC after 30 hrs by [3H]-thymidine incorporation assay
Assay type: functional, cell-based, Homo sapiens
CONDITION DETAILS: huvec
ASSAY READOUT: EC50 (nM)
Express the result in nM but write the number alone.

Item: CC(C)(C)OC(=O)Nc1cccnc1C(=O)Nc1nccs1 | EC50: 1500

----------
TARGET UNDER TEST: Methionine aminopeptidase 1 (Homo sapiens)
METHOD DESCRIPTION: Inhibition of human methionine aminopeptidase 1 in presence of Mn2+
Listing: EC50 of selected compounds

# annotated cases, reported EC50 shown
# SAMPLE SMILES, EC50
data = [
    ("c1ccc(-c2nc(N3CCOCC3)c3ccccc3n2)nc1", "41 µM"),
    ("c1ccc(-c2nc(N3CCCCC3)c3ccccc3n2)nc1", "7.6 µM"),
    ("c1ccc(NCCNc2nc(-c3ccccn3)nc3ccccc23)cc1", "> 100 µM"),
    ("CN1CCN(c2cc(-c3ccccn3)nc3ccccc23)CC1", "> 100 µM"),
    ("c1ccc(-c2cc(N3CCCCC3)c3ccccc3n2)nc1", "> 100 µM"),
]

Measured EC50 of Clc1nc(-c2ccccn2)nc2ccccc12 : > 100 µM

The compound listed as c1ccc2[nH]c(-c3cscn3)nc2c1 shows EC50 equal to > 100 µM

The compound listed as c1ccc(CCNc2nc(-c3ccccn3)nc3ccccc23)cc1 has a reported EC50 of 24 µM

Input c1ccc(-c2cc(N3CCOCC3)c3ccccc3n2)nc1 . Output EC50: > 100 µM

----------
TARGET UNDER TEST: Methionine aminopeptidase 1 (Homo sapiens, UniProt P53582)
METHOD DESCRIPTION: Inhibition of human methionine aminopeptidase 1 in presence of Co2+
ASSAY READOUT: log10 EC50 (log10 of the value in nM)
For clarity, the numbers are log10 values of EC50 expressed in nM.

// solved cases for log10 EC50 follow
# SAMPLE SMILES, log10 EC50
rows = [
    ("c1ccc(-c2nc(N3CCOCC3)c3ccccc3n2)nc1", 1.69),
    ("c1ccc(CCNc2nc(-c3ccccn3)nc3ccccc23)cc1", 2.97),
    ("c1ccc(-c2cc(N3CCCCC3)c3ccccc3n2)nc1", 2.59),
    ("CN1CCN(c2cc(-c3ccccn3)nc3ccccc23)CC1", 2.94),
]

Value of measured log10 EC50 for the entry c1ccc(-c2nc(N3CCCCC3)c3ccccc3n2)nc1 : 2.04
